# experimentalDetails: physchem
# testConditions: simulated intestinal fluid, pH 6.6
quantity: remaining at 0.5 h, 1 µM (%)
Return type: number; implicit unit %.

CO[C@H]1/C=C/C[C@H](C)[C@@H](C)S(=O)(=O)NC(=O)c2ccc3c(c2)N(C[C@@H]2CC[C@H]21)C[C@@]1(CCCc2cc(Cl)ccc21)CO3: 90

Would you kindly look at the next entry?
Note to self: remaining at 0.5 h, 1 µM recorded for `CO[C@H]1/C=C/CCN(C)C(=O)C[C@](O)(C(=O)O)c2ccc3c(c2)N(C[C@@H]2CC[C@H]21)C[C@@]1(CCCc2cc(Cl)ccc21)CO3` was 100

----------
# experimentalDetails: physchem
# testConditions: simulated intestinal fluid, pH 6.6
quantity: remaining at 1 h, 1 µM (%)
Express the result in % but write the number alone.

CO[C@H]1/C=C/C[C@H](C)[C@@H](C)S(=O)(=O)NC(=O)c2ccc3c(c2)N(C[C@@H]2CC[C@H]21)C[C@@]1(CCCc2cc(Cl)ccc21)CO3: 81

Now let's try a different one.
Consider `CO[C@H]1/C=C/CCN(C)C(=O)C[C@](O)(C(=O)O)c2ccc3c(c2)N(C[C@@H]2CC[C@H]21)C[C@@]1(CCCc2cc(Cl)ccc21)CO3` . Its measured remaining at 1 h, 1 µM is 100

----------
# experimentalDetails: in vivo
# testConditions: Sprague-Dawley, rat, iv, 0.5 mg/kg
Rule: label 1 for half-life not less than 300 min, label 0 for anything less.

CO[C@H]1/C=C/CCN(C)C(=O)C[C@](O)(C(=O)NS(C)(=O)=O)c2ccc3c(c2)N(C[C@@H]2CC[C@H]21)C[C@@]1(CCCc2cc(Cl)ccc21)CO3: label 0

Query: // inclusive: half-life at least 300 min? input: `CN1CC/C=C/[C@H](OCCCN2CC(F)(F)C2)[C@@H]2CC[C@H]2CN2C[C@@]3(CCCc4cc(Cl)ccc43)COc3ccc(cc32)[C@@](O)(C(=O)NS(=O)(=O)N(C)C)CC1=O`
Result: label 1

Query: For this compound, is measured half-life 300 min or higher? `CO[C@H]1/C=C/CCN(C)C(=O)C[C@](O)(C(=O)O)c2ccc3c(c2)N(C[C@@H]2CC[C@H]21)C[C@@]1(CCCc2cc(Cl)ccc21)CO3`
Result: label 1

Query: Answer whether half-life of `CN1CC/C=C/[C@H](OCCOCC(F)F)[C@@H]2CC[C@H]2CN2C[C@@]3(CCCc4cc(Cl)ccc43)COc3ccc(cc32)[C@@](O)(C(=O)NS(=O)(=O)N(C)C)CC1=O` is greater than or equal to 300 min.
Result: label 1

Query: Threshold query (half-life >= 300 min) on `CN1CC/C=C/[C@H](OCCN2CCOCC2)[C@@H]2CC[C@H]2CN2C[C@@]3(CCCc4cc(Cl)ccc43)COc3ccc(cc32)[C@@](O)(C(=O)NS(=O)(=O)N(C)C)CC1=O`
Result: label 0

Query: Assess whether reported half-life for `CN1CC/C=C/[C@H](OCCN2CC(F)C2)[C@@H]2CC[C@H]2CN2C[C@@]3(CCCc4cc(Cl)ccc43)COc3ccc(cc32)[C@@](O)(C(=O)NS(=O)(=O)N(C)C)CC1=O` sits at 300 min or higher.
Result: label 0

----------
# experimentalDetails: in vivo
# testConditions: athymic nude, mouse, plasma, po, 30 mg/kg
quantity: concentration at 6 h (µM)
Number only, in µM; omit the unit.

Sure, the documented concentration at 6 h for `CO[C@H]1/C=C/C[C@H](C)[C@@H](C)S(=O)(=O)NC(=O)c2ccc3c(c2)N(C[C@@H]2CC[C@H]21)C[C@@]1(CCCc2cc(Cl)ccc21)CO3` is 49.3
